- test method notes: Caco-2 cell monolayer membrane transport assay
- run conditions: human, Caco-2, Papp A-B, Mean, Caco-2; A-B; mean of two samples
readout type: Papp A→B

smiles data	Papp A→B
CO[C@H]1C(=O)[C@]2(C)C=C[C@@H](O)[C@](CO)(OC(C)=O)[C@H]2[C@H](OC(=O)c2ccccc2)[C@]2(O)C[C@H](OC(=O)[C@H](O)[C@@H](NC(=O)OC(C)(C)C)c3ccccc3)C(C)=C1C2(C)C	5.83 ×10⁻⁶ cm/s
CO[C@H]1C[C@H]2OC[C@@]2(OC(C)=O)[C@H]2[C@H](OC(=O)c3ccccc3)[C@]3(O)C[C@H](OC(=O)[C@H](O)[C@@H](NC(=O)OC(C)(C)C)c4ccccc4)C(C)=C([C@@H](OC(=O)N(C)C)C(=O)[C@]12C)C3(C)C	8.69 ×10⁻⁶ cm/s
CO[C@H]1C(=O)[C@]2(C)[C@@H](OC(=O)N(C)C)C[C@H]3OC[C@@]3(OC(C)=O)[C@H]2[C@H](OC(=O)c2ccccc2)[C@]2(O)C[C@H](OC(=O)[C@H](O)[C@@H](NC(=O)OC(C)(C)C)c3ccccc3)C(C)=C1C2(C)C	10.6 ×10⁻⁶ cm/s
CO[C@H]1C(=O)[C@]2(C)[C@@H](OC(=O)N(C)C)C[C@H]3OC[C@@]3(OC(C)=O)[C@H]2[C@H](OC(=O)c2ccccc2)[C@]2(O)C[C@H](OC(=O)[C@H](O)[C@@H](NC(=O)N(C)C)c3ccccc3)C(C)=C1C2(C)C	3.04 ×10⁻⁶ cm/s

Working through the 2 molecules below one at a time, give Papp A→B for each.
1. CO[C@H]1C(=O)[C@]2(C)C=C[C@@H](O)[C@](CO)(OC(C)=O)[C@H]2[C@H](OC(=O)c2ccccc2)[C@]2(O)C[C@H](OC(=O)[C@H](O)[C@@H](NC(=O)c3ccccc3)c3ccccc3)C(C)=C1C2(C)C
2. COC(=O)O[C@H]1C(=O)[C@]2(C)[C@@H](OC)C[C@H]3OC[C@@]3(OC(C)=O)[C@H]2[C@H](OC(=O)c2ccccc2)[C@]2(O)C[C@H](OC(=O)[C@H](O)[C@@H](NC(=O)OC(C)(C)C)c3ccccc3)C(C)=C1C2(C)C

Result:
["3.05 ×10⁻⁶ cm/s", "8.75 ×10⁻⁶ cm/s"]

Working through the 2 molecules below one at a time, give Papp A→B for each.
1. CCSC(=O)O[C@H]1C(=O)[C@]2(C)[C@@H](OC)C[C@H]3OC[C@@]3(OC(C)=O)[C@H]2[C@H](OC(=O)c2ccccc2)[C@]2(O)C[C@H](OC(=O)[C@H](O)[C@@H](NC(=O)OC(C)(C)C)c3ccccc3)C(C)=C1C2(C)C
2. CO[C@H]1C(=O)[C@]2(C)[C@@H](OC(=O)N(C)C)C[C@H]3OC[C@@]3(OC(C)=O)[C@H]2[C@H](OC(=O)c2ccccc2)[C@]2(O)C[C@H](OC(=O)[C@H](O)[C@H](CC(C)C)NC(=O)OC(C)(C)C)C(C)=C1C2(C)C

Result:
1. 4.68 ×10⁻⁶ cm/s
2. 10.7 ×10⁻⁶ cm/s

###

- test method notes: Caco-2 cell monolayer membrane transport assay
- run conditions: human, Caco-2, Papp A-B, Sample-01, Caco-2; A-B; Sample-01
We label by threshold. Values of Papp A→B strictly beneath 6 ×10⁻⁶ cm/s are Fulfilled. Values of 6 ×10⁻⁶ cm/s and up are Not fulfilled.

Recorded results for 6 molecules are shown here.
molecule	assigned label
CO[C@H]1C[C@H]2OC[C@@]2(OC(C)=O)[C@H]2[C@H](OC(=O)c3ccccc3)[C@]3(O)C[C@H](OC(=O)[C@H](O)[C@@H](NC(=O)OC(C)(C)C)c4ccccn4)C(C)=C([C@@H](OC(=O)N(C)C)C(=O)[C@]12C)C3(C)C [PCMI-24]	Fulfilled
CCSC(=O)O[C@H]1C[C@H]2OC[C@@]2(OC(C)=O)[C@H]2[C@H](OC(=O)c3ccccc3)[C@]3(O)C[C@H](OC(=O)[C@H](O)[C@@H](NC(=O)N(C)C)c4ccccc4)C(C)=C([C@@H](OC)C(=O)[C@]12C)C3(C)C [PCMI-40]	Fulfilled
CO[C@H]1C(=O)[C@]2(C)CC[C@H]3OC[C@@]3(OC(C)=O)[C@H]2[C@H](OC(=O)c2ccccc2)[C@]2(O)C[C@H](OC(=O)[C@H](O)[C@@H](NC(=O)OC(C)(C)C)c3ccccc3)C(C)=C1C2(C)C [PCMI-41]	Fulfilled
COC(=O)O[C@H]1C[C@H]2OC[C@@]2(OC(C)=O)[C@H]2[C@H](OC(=O)c3ccccc3)[C@]3(O)C[C@H](OC(=O)[C@H](O)[C@@H](NC(=O)OC(C)(C)C)c4ccccc4)C(C)=C([C@@H](OC)C(=O)[C@]12C)C3(C)C [PCMI-36]	Not fulfilled
CO[C@H]1C(=O)[C@]2(C)[C@@H](OC(=O)N(C)C)C[C@H]3OC[C@@]3(OC(C)=O)[C@H]2[C@H](OC(=O)c2ccccc2)[C@]2(O)C[C@H](OC(=O)[C@H](O)[C@H](CC(C)C)NC(=O)OC(C)(C)C)C(C)=C1C2(C)C [PCMI-34]	Not fulfilled
CCSC(=O)O[C@H]1C(=O)[C@]2(C)[C@@H](OC)C[C@H]3OC[C@@]3(OC(C)=O)[C@H]2[C@H](OC(=O)c2ccccc2)[C@]2(O)C[C@H](OC(=O)[C@H](O)[C@@H](NC(=O)OC(C)(C)C)c3ccccc3)C(C)=C1C2(C)C [PCMI-30]	Fulfilled

Let us examine a further case.
Task: Determine whether this molecule shows Papp A→B lower than 6 ×10⁻⁶ cm/s (ties excluded): CO[C@H]1C(=O)[C@]2(C)CC[C@H]3OC[C@@]3(OC(C)=O)[C@H]2[C@H](OC(=O)c2ccccc2)[C@]2(O)C[C@H](OC(=O)[C@H](O)[C@H](CC(C)C)NC(=O)OC(C)(C)C)C(C)=C1C2(C)C [PCMI-42]
Result: Not fulfilled

###

- test method notes: In vivo oral bioavailability assay (pharmacokinetics)
- Set-up: species or system S.D. rats
- run conditions: male, S.D., plasma; rat; intravenous 5 mg/kg; 0-24 hours
- Excerpt: 3. In Vivo Oral Bioavailability Assay The compound PCMI-31 was synthesized and detected according to the methods provided in the present invention. The internal standard, paclitaxel, was purchased from China's National Institute for the Control of Pharmaceutical and Biological Products (NICPBP). […]
readout type: AUC(0-t)

Task: // fetch AUC(0-t) given entry CO[C@H]1C(=O)[C@]2(C)[C@@H](OC(=O)N(C)C)C[C@H]3OC[C@@]3(OC(C)=O)[C@H]2[C@H](OC(=O)c2ccccc2)[C@]2(O)C[C@H](OC(=O)[C@H](O)[C@@H](NC(=O)OC(C)(C)C)c3ccccc3)C(C)=C1C2(C)C
Result: 3310 ng·h/mL

###

- test method notes: MTT assay, proliferation inhibition
- Type: cell-based
- run conditions: Homo sapiens, LN-18 gastric cancer, read-out: Proliferation inhibition rate
Assign inhibition at 1 µM to each entry below.
One number for each entry, in %.

Solved entries:
molecule	readout type	readout value
CO[C@H]1C(=O)[C@]2(C)[C@@H](OC(=O)N(C)C)C[C@H]3OC[C@@]3(OC(C)=O)[C@H]2[C@H](OC(=O)c2ccccc2)[C@]2(O)C[C@H](OC(=O)[C@H](O)[C@H](CC(C)C)NC(=O)OC(C)(C)C)C(C)=C1C2(C)C [PCMI-34]	inhibition at 1 µM	90.6
CO[C@H]1C[C@H]2OC[C@@]2(OC(C)=O)[C@H]2[C@H](OC(=O)c3ccccc3)[C@]3(O)C[C@H](OC(=O)[C@H](O)[C@@H](NC(=O)OC(C)(C)C)c4ccccc4)C(C)=C([C@@H](OC(=O)N(C)C)C(=O)[C@]12C)C3(C)C [PCMI-22]	inhibition at 1 µM	95.5
CCSC(=O)O[C@H]1C[C@H]2OC[C@@]2(OC(C)=O)[C@H]2[C@H](OC(=O)c3ccccc3)[C@]3(O)C[C@H](OC(=O)[C@H](O)[C@@H](NC(=O)N(C)C)c4ccccc4)C(C)=C([C@@H](OC)C(=O)[C@]12C)C3(C)C [PCMI-40]	inhibition at 1 µM	93.9
CO[C@H]1C(=O)[C@]2(C)[C@@H](OC(=O)N(C)C)C[C@H]3OC[C@@]3(OC(C)=O)[C@H]2[C@H](OC(=O)c2ccccc2)[C@]2(O)C[C@H](OC(=O)[C@H](O)[C@@H](NC(=O)c3ccccc3)c3ccccc3)C(C)=C1C2(C)C [PCMI-32]	inhibition at 1 µM	92.2
COC(=O)O[C@H]1C(=O)[C@]2(C)[C@@H](OC)C[C@H]3OC[C@@]3(OC(C)=O)[C@H]2[C@H](OC(=O)c2ccccc2)[C@]2(O)C[C@H](OC(=O)[C@H](O)[C@@H](NC(=O)OC(C)(C)C)c3ccccc3)C(C)=C1C2(C)C [PCMI-26]	inhibition at 1 µM	89
CO[C@H]1C[C@H]2OC[C@@]2(OC(C)=O)[C@H]2[C@H](OC(=O)c3ccccc3)[C@]3(O)C[C@H](OC(=O)[C@H](O)[C@H](CC(C)C)NC(=O)OC(C)(C)C)C(C)=C([C@@H](OC(=O)N(C)C)C(=O)[C@]12C)C3(C)C [PCMI-25]	inhibition at 1 µM	92.5
CO[C@H]1C(=O)[C@]2(C)C=C[C@@H](O)[C@](CO)(OC(C)=O)[C@H]2[C@H](OC(=O)c2ccccc2)[C@]2(O)C[C@H](OC(=O)[C@H](O)[C@@H](NC(=O)OC(C)(C)C)c3ccccc3)C(C)=C1C2(C)C [PCMI-44]	inhibition at 1 µM	89.8

Below: the item to evaluate.
Task: // fetch inhibition at 1 µM given entry CO[C@H]1C(=O)[C@]2(C)[C@@H](OC(=O)N(C)C)C[C@H]3OC[C@@]3(OC(C)=O)[C@H]2[C@H](OC(=O)c2ccccc2)[C@]2(O)C[C@H](OC(=O)[C@H](O)[C@@H](NC(=O)OC(C)(C)C)c3ccccc3)C(C)=C1C2(C)C [PCMI-31]
Result: 95.6
